- target-under-test: hMC4-R (Homo sapiens (Human), UniProt P32245)
- Sequence (P32245 whole entry): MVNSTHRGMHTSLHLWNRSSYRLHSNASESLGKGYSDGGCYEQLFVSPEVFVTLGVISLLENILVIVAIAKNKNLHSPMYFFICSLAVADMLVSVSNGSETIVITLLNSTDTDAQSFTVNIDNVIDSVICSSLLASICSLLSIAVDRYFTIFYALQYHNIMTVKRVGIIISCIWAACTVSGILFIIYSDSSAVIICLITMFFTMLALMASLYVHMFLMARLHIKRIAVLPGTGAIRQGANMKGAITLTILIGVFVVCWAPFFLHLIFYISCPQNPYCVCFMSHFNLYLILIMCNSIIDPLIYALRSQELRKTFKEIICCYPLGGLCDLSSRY
- test-summary: High and low density hMC4-R functional assay (cAMP, HEK293-T-REx-MC4-R cells)
- Assay type: cell-based
- setup-conditions: 0.1 ng/mL Doxycycline (low density hMC4-R system); NDP-α-MSH = 100%; read-out: Intrinsic Activity (%)
Positions of bridges follow the written chain, without caps; N, C: chain ends. Non-standard residues stand in square brackets, D forms with d. Residues, ends and D or L forms follow the SMILES beside them. dPhe(2-F) = N[C@H](Cc1ccccc1F)C(=O)O; Orn = NCCC[C@H](N)C(=O)O
quantity-kind: Emax (%)
One number for each entry, in %.

These solved cases illustrate the format of a correct answer.
CC(=O)N[C@@H](CCCNC(=N)N)C(=O)N[C@H]1CCC(=O)NCCC[C@@H](C(N)=O)NC(=O)[C@H](Cc2c[nH]c3ccccc23)NC(=O)[C@H](CCCNC(=N)N)NC(=O)[C@@H](Cc2ccc(C#N)cc2)NC(=O)[C@H](CCN)NC1=O: 48
CC(=O)N[C@@H](CCCNC(=N)N)C(=O)N[C@H]1CCCNC(=O)CC[C@@H](C(N)=O)NC(=O)[C@H](Cc2c[nH]c3ccccc23)NC(=O)[C@H](CCCNC(=N)N)NC(=O)[C@@H](Cc2ccccc2F)NC(=O)[C@@H]2CCCN2C1=O [Example 105] (Ac-R[Orn]P[dPhe(2-F)]RWE-NH2; lactam 2-7): 35

For the next question, use this compound.
Please look up its Emax: CC(=O)N[C@@H](CCCNC(=N)N)C(=O)N[C@H]1CCC(=O)NCCC[C@@H](C(N)=O)NC(=O)[C@H](Cc2c[nH]c3ccccc23)NC(=O)[C@H](CCCNC(=N)N)NC(=O)[C@@H](Cc2ccccc2F)NC(=O)[C@@H]2CCCN2C1=O
32

----------
- target-under-test: hMC4-R (Homo sapiens (Human), UniProt P32245)
- test-summary: High and low density hMC4-R functional assay (cAMP, HEK293-T-REx-MC4-R cells)
- Type: cell-based
- setup-conditions: 0.1 ng/mL Doxycycline (low density hMC4-R system)
Task for the reader: assign each of the following molecules its reported EC50.

// worked examples, EC50 included
CC(=O)N[C@H](CCCNC(=N)N)C(=O)N[C@H]1CC(=O)NCCCC[C@@H](C(N)=O)NC(=O)[C@H](Cc2c[nH]c3ccccc23)NC(=O)[C@H](CCCNC(=N)N)NC(=O)[C@@H](Cc2ccc(F)cc2)NC(=O)[C@H](CCC(N)=O)NC1=O [Example 83]: 0.75 nM
CC(=O)N[C@@H](CCCNC(=N)N)C(=O)N[C@H]1CCC(=O)NCCC[C@@H](C(N)=O)NC(=O)[C@H](Cc2c[nH]c3ccccc23)NC(=O)[C@H](CCCNC(=N)N)NC(=O)[C@@H](Cc2ccc(F)cc2)NC(=O)[C@H](CC(N)=O)NC1=O [Example 69]: 0.25 nM
CC(=O)N[C@H](CCCNC(=N)N)C(=O)N[C@H]1CC(=O)NCCCC[C@@H](C(N)=O)NC(=O)[C@H](Cc2c[nH]c3ccccc23)NC(=O)[C@H](CCCNC(=N)N)NC(=O)[C@@H](Cc2ccccc2Cl)NC(=O)[C@H](CCC(N)=O)NC1=O [Example 79]: 4 nM

Consider the record given below.
Can you look up EC50 on hMC4-R (Homo sapiens (Human), UniProt P32245) for CC(=O)N[C@@H](CCCNC(=N)N)C(=O)N[C@H]1CCC(=O)NCCC[C@@H](C(N)=O)NC(=O)[C@H](Cc2c[nH]c3ccccc23)NC(=O)[C@H](CCCNC(=N)N)NC(=O)[C@@H](Cc2ccc(F)cc2)NC(=O)[C@H](CCS(C)(=O)=O)NC1=O [Example 68] ?
0.85 nM
